IC50 values, listed per item
EXPERIMENTAL SYSTEM: Human vitronectin receptor (αvβ3) (Homo sapiens, UniProt P05106+P06756)
Construct: Human vitronectin receptor (αvβ3) was purified from human placenta; from tissue; host or cells: human placenta
PROCEDURE TEXT: Vitronectin adhesion assay (solid phase receptor assay, competition with biotinylated vitronectin)
Assay type: binding
SETTINGS: purified receptor from human placenta; 1 nM biotinylated vitronectin; highest concentration tested 1.0 x 10^-4 M; read-out: AvB3 IC50
Counter-ions that a name gives are not always drawn.
MEASUREMENT TYPE: IC50 (nM)

INSERT INTO assay_data (compound, result_value) VALUES
  ('CN(C)c1cc(NC(=O)c2cccc(NC(=N)N)c2)ccc1CCC(=O)O [Example 117, bis(trifluoroacetate) salt]', 129),
  ('N=C(N)Nc1cccc(C(=O)Nc2ccc(C(CC(=O)O)c3ccccc3)cc2)c1 (stereo not shown) [Example 33, trifluoroacetate salt]', 73.6),
  ('N=C(N)Nc1cccc(C(=O)Nc2ccc(CC(NC(=O)c3ccccc3)C(=O)O)cc2)c1 (stereo not shown) [Example 47, trifluoroacetate salt]', 5.89),
  ('CC(C)OC(=O)NC(Cc1ccc(NC(=O)c2cccc(NC3=NC(=O)CN3)c2)cc1)C(=O)O (stereo not shown) [Example 77]', 1.6);

----------
pIC50 values, listed per item
EXPERIMENTAL SYSTEM: Human fibrinogen receptor (αIIbβ3) (Homo sapiens, UniProt P05106+P08514)
Construct: Human fibrinogen receptor (αIIbβ3) was purified from outdated platelets
PROCEDURE TEXT: Purified IIb/IIIa receptor assay (solid phase receptor assay, competition with biotinylated vitronectin)
SETTINGS: purified receptor from outdated platelets; 1 nM biotinylated vitronectin; highest concentration tested 1.0 x 10^-4 M
From the text: PURIFIED IIb/IIIa RECEPTOR ASSAY Human fibrinogen receptor (αIIbβ3) was purified from outdated platelets. […]
pIC50: −log10 of the molar value. Where a name gives a salt, the structure may show the parent alone.
MEASUREMENT TYPE: pIC50

INSERT INTO results (compound, experimental_system, result_value) VALUES
  ('N=C(N)Nc1cccc(C(=O)Nc2ccc(CC(NC(=O)N3CCOCC3)C(=O)O)cc2)c1 (stereo not drawn) [Example 125, bis(trifluoroacetate) salt, monohydrate]', 'Human fibrinogen receptor (αIIbβ3) (Homo sapiens, UniProt P05106+P08514)', 6.59),
  ('COc1cc(NC(=O)c2cccc(NC3=NCCCN3)c2)ccc1CCC(=O)O [Example 116, trifluoroacetate salt]', 'Human fibrinogen receptor (αIIbβ3) (Homo sapiens, UniProt P05106+P08514)', 5.50),
  ('CN(C(=O)c1cccc(NC(=N)N)c1)c1ccc(CCC(=O)O)cc1 [Example 61, monohydrate trifluoroacetate salt]', 'Human fibrinogen receptor (αIIbβ3) (Homo sapiens, UniProt P05106+P08514)', 6.18),
  ('COc1cc(NC(=O)c2cccc(NC3=NCCCN3)c2)ccc1OCC(=O)O [Example 119, trifluoroacetate salt]', 'Human fibrinogen receptor (αIIbβ3) (Homo sapiens, UniProt P05106+P08514)', 6.11),
  ('CN(C)c1cc(NC(=O)c2cccc(NC(=N)N)c2)ccc1CCC(=O)O [Example 117, bis(trifluoroacetate) salt]', 'Human fibrinogen receptor (αIIbβ3) (Homo sapiens, UniProt P05106+P08514)', 6.34),
  ('CC(C)OC(=O)NC(Cc1ccc(NC(=O)c2cccc(Nc3n[nH]c(N)n3)c2)cc1)C(=O)O (racemic) [Example 103, trifluoroacetate salt]', 'Human fibrinogen receptor (αIIbβ3) (Homo sapiens, UniProt P05106+P08514)', 5.44),
  ('CCOC(=O)COc1ccc(NC(=O)c2cccc(NC(=N)N)c2)cc1 [Example 89, trifluoroacetate salt]', 'Human fibrinogen receptor (αIIbβ3) (Homo sapiens, UniProt P05106+P08514)', 4.80),
  ('CC(C)CC(=O)NC(Cc1ccc(NC(=O)c2cccc(NC(=N)N)c2)cc1)C(=O)O (stereo not drawn) [Example 106, bis(trifluoroacetate) salt]', 'Human fibrinogen receptor (αIIbβ3) (Homo sapiens, UniProt P05106+P08514)', 7.11),
  ('COC(=O)C(C)Oc1ccc(NC(=O)c2cccc(NC(=N)N)c2)cc1 (stereo not drawn) [Example 85C]', 'Human fibrinogen receptor (αIIbβ3) (Homo sapiens, UniProt P05106+P08514)', 4.18),
  ('CCCCS(=O)(=O)NC(Cc1ccc(NC(=O)c2cccc(NC(=N)N)c2)cc1)C(=O)OCC (stereo not drawn) [Example 41, trifluoroacetate salt]', 'Human fibrinogen receptor (αIIbβ3) (Homo sapiens, UniProt P05106+P08514)', 5.24),
  ('N=C(N)Nc1cccc(C(=O)Nc2ccc(CC(NS(=O)(=O)c3cc(Cl)cc(Cl)c3)C(=O)O)cc2)c1 (stereo not drawn) [Example 122, trifluoroacetate salt]', 'Human fibrinogen receptor (αIIbβ3) (Homo sapiens, UniProt P05106+P08514)', 7.30),
  ('CC(CC(=O)O)c1ccc(NC(=O)c2cccc(NC(=N)N)c2)cc1 (stereo not drawn) [Example 31, trifluoroacetate salt]', 'Human fibrinogen receptor (αIIbβ3) (Homo sapiens, UniProt P05106+P08514)', 7.18),
  ('N=C(N)Nc1cccc(C(=O)NCc2ccc(CCC(=O)O)cc2)c1 [Example 29, trifluoroacetate salt]', 'Human fibrinogen receptor (αIIbβ3) (Homo sapiens, UniProt P05106+P08514)', 5.89),
  ('N=C(N)Nc1cccc(S(=O)(=O)Nc2ccc(CCC(=O)O)cc2)c1 [Example 62, trifluoroacetate salt]', 'Human fibrinogen receptor (αIIbβ3) (Homo sapiens, UniProt P05106+P08514)', 4.83),
  ('CC(C)OC(=O)NC(Cc1ccc(NC(=O)c2cccc(NC(=N)N)c2)c(Cl)c1)C(=O)O (stereo not drawn) [Example 127, trifluoroacetate salt]', 'Human fibrinogen receptor (αIIbβ3) (Homo sapiens, UniProt P05106+P08514)', 7.66),
  ('COC(=O)c1cc(NC(=O)c2cccc(NC(=N)N)c2)ccc1CCC(=O)O [Example 101B, bis(trifluoroacetate) salt]', 'Human fibrinogen receptor (αIIbβ3) (Homo sapiens, UniProt P05106+P08514)', 6.54),
  ('CC(C)OC(=O)NC(Cc1ccc(NC(=O)c2cccc(N=C(N)N)c2)cc1)C(=O)O (stereo not drawn) [Example 50, trifluoroacetate salt]', 'Human fibrinogen receptor (αIIbβ3) (Homo sapiens, UniProt P05106+P08514)', 7.66),
  ('NC(N)=Nc1cccc(C(=O)Nc2ccc(CCC(=O)O)c(C(=O)O)c2)c1 [Example 101A, bis(trifluoroacetate) salt]', 'Human fibrinogen receptor (αIIbβ3) (Homo sapiens, UniProt P05106+P08514)', 7.24),
  ('CC(Oc1ccc(NC(=O)c2cccc(NC(=N)N)c2)cc1)C(=O)O (stereo not drawn) [Example 85, trifluoroacetate salt]', 'Human fibrinogen receptor (αIIbβ3) (Homo sapiens, UniProt P05106+P08514)', 4.90),
  ('NC(N)=Nc1cccc(C(=O)Nc2ccc(CCC(=O)O)cc2)c1 [Example 64, hydrochloride]', 'Human fibrinogen receptor (αIIbβ3) (Homo sapiens, UniProt P05106+P08514)', 7.03),
  ('CC(C)CC(=O)N[C@@H](Cc1ccc(NC(=O)c2cc(NC3=NCCCN3)cc(C(F)(F)F)c2)cc1)C(=O)O [Example 107, trifluoroacetate salt]', 'Human fibrinogen receptor (αIIbβ3) (Homo sapiens, UniProt P05106+P08514)', 5.80);

----------
EXPERIMENTAL SYSTEM: Human vitronectin receptor (αvβ3) (Homo sapiens, UniProt P05106+P06756)
Construct: Human vitronectin receptor (αvβ3) was purified from human placenta; from tissue; host or cells: human placenta
PROCEDURE TEXT: Vitronectin adhesion assay (solid phase receptor assay, competition with biotinylated vitronectin)
Type: binding
SETTINGS: purified receptor from human placenta; 1 nM biotinylated vitronectin; highest concentration tested 1.0 x 10^-4 M; read-out: AvB3 IC50
Counter-ions that a name gives are not always drawn.
IC50 values, listed per item
MEASUREMENT TYPE: IC50 (nM)

INSERT INTO assay_data (compound, experimental_system, measurement_type, result_unit, lt_gt_eq, result_value) VALUES
  ('N=C(N)Nc1cccc(C(=O)Nc2ccc(CC(N)C(=O)O)cc2)c1 (stereo not shown) [Example 65, trifluoroacetate salt]', 'Human vitronectin receptor (αvβ3) (Homo sapiens, UniProt P05106+P06756)', 'IC50', 'nM', '=', 4760),
  ('O=C(O)CCc1ccc(NC(=O)c2cccc(NC3=NCCCN3)c2)cc1C(=O)O [Example 102, trifluoroacetate salt]', 'Human vitronectin receptor (αvβ3) (Homo sapiens, UniProt P05106+P06756)', 'IC50', 'nM', '=', 6),
  ('N=C(N)Nc1cccc(C(=O)NCc2ccc(CCC(=O)O)cc2)c1 [Example 29, trifluoroacetate salt]', 'Human vitronectin receptor (αvβ3) (Homo sapiens, UniProt P05106+P06756)', 'IC50', 'nM', '=', 4000),
  ('NC(N)=Nc1cccc(C(=O)Nc2ccc(CCC(=O)O)c(C(=O)O)c2)c1 [Example 101A, bis(trifluoroacetate) salt]', 'Human vitronectin receptor (αvβ3) (Homo sapiens, UniProt P05106+P06756)', 'IC50', 'nM', '=', 9),
  ('CCOC(=O)CCc1ccc(CNC(=O)c2cccc(C#N)c2)cc1 [Example 12]', 'Human vitronectin receptor (αvβ3) (Homo sapiens, UniProt P05106+P06756)', 'IC50', 'nM', '>', 100000),
  ('N#CN=C(NCc1ccccc1)Nc1cccc(C(=O)Nc2ccc(CCC(=O)O)cc2)c1 [Example 79]', 'Human vitronectin receptor (αvβ3) (Homo sapiens, UniProt P05106+P06756)', 'IC50', 'nM', '=', 2290),
  ('N=C(N)Nc1cccc(S(=O)(=O)Nc2ccc(CCC(=O)O)cc2)c1 [Example 62, trifluoroacetate salt]', 'Human vitronectin receptor (αvβ3) (Homo sapiens, UniProt P05106+P06756)', 'IC50', 'nM', '=', 28100),
  ('N=C(N)Nc1cccc(C(=O)NCCc2ccc(CCC(=O)O)cc2)c1 [Example 59, trifluoroacetate salt]', 'Human vitronectin receptor (αvβ3) (Homo sapiens, UniProt P05106+P06756)', 'IC50', 'nM', '=', 4480),
  ('COc1cc(NC(=O)c2cccc(NC3=NCCCN3)c2)ccc1CCC(=O)O [Example 116, trifluoroacetate salt]', 'Human vitronectin receptor (αvβ3) (Homo sapiens, UniProt P05106+P06756)', 'IC50', 'nM', '=', 6),
  ('CC(C)(C)OC(=O)NC(Cc1ccc(NC(=O)c2cccc(N=C(N)N)c2)cc1)C(=O)O (stereo not shown) [Example 55, monohydrate trifluoroacetate salt]', 'Human vitronectin receptor (αvβ3) (Homo sapiens, UniProt P05106+P06756)', 'IC50', 'nM', '=', 0.51),
  ('CC(C)OC(=O)NC(Cc1ccc(NC(=O)c2cccc(Nc3noc(N)n3)c2)cc1)C(=O)O (racemic) [Example 104, trifluoroacetate salt]', 'Human vitronectin receptor (αvβ3) (Homo sapiens, UniProt P05106+P06756)', 'IC50', 'nM', '=', 506),
  ('N=C(N)Nc1cccc(C(=O)Nc2ccc(CC(NS(=O)(=O)c3ccccc3)C(=O)O)cc2)c1 (stereo not shown) [Example 51, trifluoroacetate salt]', 'Human vitronectin receptor (αvβ3) (Homo sapiens, UniProt P05106+P06756)', 'IC50', 'nM', '=', 0.63),
  ('CC(C)(C)OC(=O)N[C@@H](Cc1ccc(NC(=O)c2cccc(NC(=N)N)c2)cc1)C(=O)O [Example 56, trifluoroacetate salt]', 'Human vitronectin receptor (αvβ3) (Homo sapiens, UniProt P05106+P06756)', 'IC50', 'nM', '=', 0.43),
  ('CC(=O)NC(Cc1ccc(NC(=O)Nc2cccc(NC(=N)N)c2)cc1)C(=O)O (stereo not shown) [Example 68, trifluoroacetate salt]', 'Human vitronectin receptor (αvβ3) (Homo sapiens, UniProt P05106+P06756)', 'IC50', 'nM', '=', 782),
  ('N=C(N)Nc1cccc(C(=O)Nc2ccc(CC(C(=O)O)C(=O)O)cc2)c1 [Example 120]', 'Human vitronectin receptor (αvβ3) (Homo sapiens, UniProt P05106+P06756)', 'IC50', 'nM', '=', 14),
  ('CS(=O)(=O)NC(Cc1ccc(NC(=O)c2cccc(NC(=N)N)c2)cc1)C(=O)O (stereo not shown) [Example 48, trifluoroacetate salt]', 'Human vitronectin receptor (αvβ3) (Homo sapiens, UniProt P05106+P06756)', 'IC50', 'nM', '=', 0.63);

Source: patent EP1157985A1
